- assayed.system: Genome polyprotein (dengue virus type 2)
- protocol.description: Inhibition of Dengue virus serotype 2 NS2B-NS3 protease transfected in human HeLa cells at 12.5 uM measured after 24 hrs by Renilla-luciferase reporter gene assay relative to control
- Format: cell-based
recorded.endpoint: inhibition (%)
One number for each entry, in %.

# record.smiles, recorded.endpoint, quantity.unit, observed.value
rows = [
    ("N=C(N)Nc1ccc(CNC(=O)[C@@H](NC(=O)Cc2ccc(-c3ccccc3)cc2)c2ccc(OCc3ccccc3)cc2)cc1.O=C(O)C(F)(F)F", "inhibition", "%", 16.3),
]

Batch lookup, inhibition per entry.
1. N=C(N)NCCC[C@H](NC(=O)c1ccccc1)C(=O)N[C@@H](CCCCN)C(=O)N[C@@H](C(N)=O)c1ccc(OCc2ccccc2)cc1
2. CCCCCCC(=O)N[C@H](C(=O)NCc1ccc(NC(=N)N)cc1)c1ccc(OCc2ccccc2)cc1.O=C(O)C(F)(F)F
3. CCCCCC(=O)N[C@H](C(=O)NCc1ccc(N)cc1)c1ccc(OCc2ccccc2)cc1.O=C(O)C(F)(F)F
4. N=C(N)Nc1ccc(CNC(=O)[C@@H](NC(=O)c2ccc(OC3CCCCC3)cc2)c2ccc(OCc3ccccc3)cc2)cc1.O=C(O)C(F)(F)F

1. 40.9
2. 71
3. 43
4. 70.4

Look at this molecule and give its reported inhibition. `CCCCCC(=O)N[C@H](C(=O)NCCCCN)c1ccc(OCc2ccccc2)cc1`
45.8

====

- assayed.system: Genome polyprotein (dengue virus type 2)
- protocol.description: Inhibition of Dengue virus serotype 2 NS2B-NS3 protease transfected in human HeLa cells at 12.5 uM measured after 24 hrs by Renilla-luciferase reporter gene assay relative to control
- Format: cell-based
For each entry below, report its inhibition value.

Batch lookup, inhibition per entry.
1. N=C(N)Nc1ccc(CNC(=O)[C@@H](NC(=O)Cc2ccc(-c3ccccc3)cc2)c2ccc(OCc3c(Cl)cccc3Cl)cc2)cc1.O=C(O)C(F)(F)F
2. CCCCCCCCCC(=O)N[C@H](C(=O)NCc1ccc(NC(=N)N)cc1)c1ccc(OCc2ccccc2)cc1.O=C(O)C(F)(F)F
3. CCCCCC(=O)N[C@H](C(=O)NCc1ccc(NC(N)=O)cc1)c1ccc(OCc2ccccc2)cc1
4. N=C(N)Nc1ccc(CNC(=O)[C@@H](NC(=O)c2cccc(Oc3ccccc3)c2)c2ccc(OCc3ccccc3)cc2)cc1.O=C(O)C(F)(F)F
5. CCCCCCCC(=O)N[C@H](C(=O)NCc1ccc(NC(=N)N)cc1)c1ccc(OCc2ccccc2)cc1.O=C(O)C(F)(F)F

["31.7%", "65.8%", "24%", "67.5%", "71.4%"]

Batch lookup, inhibition per entry.
1. CCCCCC(=O)N[C@H](C(=O)NCCCCCCNC(=N)N)c1ccc(OCc2ccccc2)cc1
2. N=C(N)Nc1ccc(CNC(=O)[C@@H](NC(=O)c2ccc(OCc3ccc(Cl)cc3)cc2)c2ccc(OCc3ccccc3)cc2)cc1.O=C(O)C(F)(F)F

1: 61%; 2: 44.6%

====

For each entry below, report its CC50 at 24 h value.
- protocol.description: Cytotoxicity against human HeLa cells assessed as reduction in cell viability measured after 24 hrs by celltiter-blue assay
- Format: cell-based

The cases that follow already have their CC50 at 24 h on record.
# record.smiles, CC50 at 24 h
measured = [
    ("CCCCCC(=O)N[C@H](C(=O)Nc1ccc(CN)cc1)c1ccc(OCc2ccccc2)cc1.O=C(O)C(F)(F)F", "< 12.5 µM"),
    ("CCCCCC(=O)N[C@H](C(=O)NCc1ccccc1)c1ccc(OCc2ccccc2)cc1", "> 50 µM"),
    ("CCCCCC(=O)N[C@@H](C(=O)NCc1ccc(NC(=N)N)cc1)c1ccc(OCc2ccc(Cl)c(Cl)c2)cc1.O=C(O)C(F)(F)F", "> 50 µM"),
]

Look at this compound and give its reported CC50 at 24 h. `CCCCCC(=O)N[C@H](C(=O)N[C@@H](CCCCN)C(N)=O)c1ccc(OCc2ccccc2)cc1`
> 50 µM
